- Experiment summary: ATG_ERE_CIS: Attagene CIS-FACTORIAL HepG2 Assay for Estrogen Response Element (ERE) (AID 2282940)
- Protocol conditions: HepG2 ERE cis-reporter, Attagene RNA transcript; actives raise or lower the signal
The source made the active and inactive calls. Rule for the calls: active = hit-call score of the fitted dose curve at least 0.9, where 1 is the maximum; inactive = score below 0.9.
The reply should be one of these categories: y for active, n for inactive

Study these solved cases before continuing.
>  <Molecule>
Cc1ccc2c(c1)C(=O)c1ccccc1C2=O

>  <Label>
y

$$$$
>  <Molecule>
CC(C)CCCCCOC(=O)CCS

>  <Label>
n

$$$$
>  <Molecule>
Cc1ccc([N+](=O)[O-])cc1S(=O)(=O)O

>  <Label>
n

$$$$
>  <Molecule>
O=C1C(N(CO)C(=O)NCO)N(CO)C(=O)N1CO (stereo unspecified)

>  <Label>
n

$$$$
>  <Molecule>
CCCCC/C=C\CCC=O

>  <Label>
n

$$$$
>  <Molecule>
CCCCCCCCC(=O)OCC

>  <Label>
n

$$$$
>  <Molecule>
C=CC(=O)OCC(Br)CBr (stereo unspecified)

>  <Label>
n

$$$$
>  <Molecule>
O=c1cc(-c2ccccc2)oc2ccccc12

>  <Label>
n

$$$$

What outcome does the record of this test show for `CC(C)(C)c1ccc(OC(=O)c2ccccc2O)cc1` ?
y

Record lookup: outcome of this test for `Clc1nc2ccccc2s1` ?
n

Field: outcome | Entry: `CC(C)COC(=O)C=Cc1ccccc1`
n

Per the records of this test, what outcome belongs to `Cn1c(=O)[nH]c2ncn(C)c2c1=O` ?
n
